Reported TGI is given for each of the following compounds.
Tested on: M14 melanoma
Assay: NCI tumour cell line growth inhibition, 48 h
quantity.measured: TGI (µM)

1) CCCCC1Nc2ccccc2-c2ccnc(Cl)c21 (stereo not given)    43.1
2) CC1(C)N=C(N)N=C(N)N1c1cccc(CCCCc2ccc(Cl)c(S(=O)(=O)F)c2)c1    17.4
3) COc1ccc2nc(N/N=C/c3ccc(C)s3)cc(C)c2c1    37.7
4) COc1ccc2c(c1)c1ccc3c(c1n2C)C(=O)C=CC3=O    24.3
5) C[C@]12CC[C@@H]3c4ccc(O)cc4CC[C@H]3[C@@H]1CC(Cc1ccccc1)(Cc1ccccc1)C2=O    26.2
6) N#C[S-].[Ce+3].c1ccc(-c2ccccn2)nc1.c1ccc(-c2ccccn2)nc1.c1ccc(-c2ccccn2)nc1    24.7

Data origin: PubChem BioAssay (NCI)
